Reported bioavailability values follow for various molecules
Test: Pharmacokinetic profiles in rats
Assay type: in vivo, rat
Settings: rat, plasma, oral bioavailability
Write it as a number; the unit % goes unstated.

Cc1nnc(-c2c(N)ncnc2N[C@@H](C)c2nc3cccc(C#CC(C)O)c3c(=O)n2-c2ccccc2)o1 (stereo partly drawn) [Example 7]; 38.3
Cc1nc(-c2c(N)ncnc2N[C@@H](C)c2nc3cccc(C#CC(C)(C)O)c3c(=O)n2-c2ccccc2)no1 [Example 3]; 146
C[C@H](Nc1ncnc(N)c1-c1nnn(C)n1)c1nc2cccc(C#CC(C)(C)O)c2c(=O)n1-c1ccccc1 [Example 4]; 134
C#Cc1cccc2nc([C@H](C)Nc3ncnc(N)c3-c3nnn(C)n3)n(C3CC3)c(=O)c12 [Example 52]; 70.8
Cc1noc(-c2c(N)ncnc2N[C@@H](C)c2nc3cccc(C#CC(C)(C)O)c3c(=O)n2-c2ccccc2)n1 [Example 1]; 120

Data request: Reported bioavailability, molecule Cc1nnc(-c2c(N)ncnc2N[C@@H](C)c2nc3cccc(C#CC(C)(C)O)c3c(=O)n2-c2ccccc2)o1 [Example 2] : ____
Data returned: 106

Data request: // query bioavailability value for entry CC#Cc1cccc2nc([C@H](C)Nc3ncnc(N)c3-c3nnc(C)o3)n(C3CC3)c(=O)c12 [Example 22]
Data returned: 83.7

Data request: Using the record for Cc1noc(-c2c(N)ncnc2N[C@@H](C)c2nc3cccc(C#CCO)c3c(=O)n2-c2ccccc2)n1 [Example 34] , report its bioavailability.
Data returned: 56.8

Data request: Look up bioavailability: Cc1nc(-c2c(N)ncnc2N[C@@H](C)c2nc3cccc(C#CCO)c3c(=O)n2-c2ccccc2)no1 [Example 38]
Data returned: 40.4
